Below: a set of entries, each annotated with reported viability, T/C.
Test system: 253994-281-T-J1-PDC KRAS-mutant spheroids with HUVEC/MSC, viability;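 further: spheroids exposed to agents for seven days before readout; percent of DMSO vehicle control viability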
testMethodNotes: Anticancer human tumor 253994-281-T-J1-PDC patient-derived colorectal carcinoma cell line growth inhibition [KRAS2]
conditions: second compound 0.1 µM; first compound 0.1 µM; stronger effect = lower value
Numbers only; they are read as %.

# count of solved cases: 3
[
  {
    "compound": "CC(=O)OC12COC1CC(O)C1(C)C(=O)C(O)C3=C(C)C(OC(=O)C(O)C(NC(=O)OC(C)(C)C)c4ccccc4)CC(O)(C(OC(=O)c4ccccc4)C21)C3(C)C (configuration not stated) + CC1OCC2(CCN(c3cnc(Sc4ccnc(N)c4Cl)c(N)n3)CC2)C1N",
    "readoutName": "viability, T/C",
    "measurement": 26.3
  },
  {
    "compound": "O=C(c1cc(Cc2n[nH]c(=O)c3ccccc23)ccc1F)N1CCN(C(=O)C2CC2)CC1 + C=CC(=O)N1CCN(c2nc(=O)n(-c3c(C)ccnc3C(C)C)c3nc(-c4c(O)cccc4F)c(F)cc23)C(C)C1",
    "readoutName": "viability, T/C",
    "measurement": 93
  },
  {
    "compound": "CCNC(=O)CC1N=C(c2ccc(Cl)cc2)c2cc(OC)ccc2-n2c(C)nnc21 (configuration not stated) + C=CC(=O)N1CCN(c2nc(=O)n(-c3c(C)ccnc3C(C)C)c3nc(-c4c(O)cccc4F)c(F)cc23)C(C)C1",
    "readoutName": "viability, T/C",
    "measurement": 123
  }
]

What value of viability, T/C has been reported for the following compound? CC1COCCN1c1cc(-c2ccnn2C)c2ccnc(-c3ccn[nH]3)c2n1 (configuration not stated) + C=CC(=O)N1CCN(c2nc(=O)n(-c3c(C)ccnc3C(C)C)c3nc(-c4c(O)cccc4F)c(F)cc23)C(C)C1
76.9

What value of viability, T/C has been reported for the following compound? Cn1ncnc1[C@H]1c2n[nH]c(=O)c3cc(F)cc(c23)N[C@@H]1c1ccc(F)cc1 + CC1OCC2(CCN(c3cnc(Sc4ccnc(N)c4Cl)c(N)n3)CC2)C1N
94.4

Need viability, T/C of COC(=O)c1ccc2c(C(=Nc3ccc(N(C)C(=O)CN4CCN(C)CC4)cc3)c3ccccc3)c(O)[nH]c2c1 + CNCc1ccccc1-c1csc(C(C)Nc2nc(C)nc3cc(OC)c(OC)cc23)c1 , thanks.
97.4

I would be grateful if you could share the reported viability, T/C for CC1COCCN1c1cc(-c2ccnn2C)c2ccnc(-c3ccn[nH]3)c2n1 (configuration not stated) + C=CC(=O)N1CCN(c2nc(OCC3CCCN3C)nc3c2CCN(c2cccc4cccc(C)c24)C3)CC1CC#N .
90.7

Entry CC(C)n1nc(-c2ccc3oc(N)nc3c2)c2c(N)ncnc21 + C=CC(=O)N1CCN(c2nc(=O)n(-c3c(C)ccnc3C(C)C)c3nc(-c4c(O)cccc4F)c(F)cc23)C(C)C1 has what viability, T/C?
78.3

Suppose we examine the compound COC(=O)c1ccc2c(C(=Nc3ccc(N(C)C(=O)CN4CCN(C)CC4)cc3)c3ccccc3)c(O)[nH]c2c1 + C=CC(=O)N1CCN(c2nc(=O)n(-c3c(C)ccnc3C(C)C)c3nc(-c4c(O)cccc4F)c(F)cc23)C(C)C1 ; what viability, T/C value has been reported?
115

Request the reported viability, T/C associated with Cn1ncnc1[C@H]1c2n[nH]c(=O)c3cc(F)cc(c23)N[C@@H]1c1ccc(F)cc1 + COc1cc2nc(C)nc(NC(C)c3cc(N)cc(C(F)(F)F)c3)c2cc1OC1CCOC1
78.8

Quick one: viability, T/C for CC1OCC2(CCN(c3cnc(Sc4ccnc(N)c4Cl)c(N)n3)CC2)C1N (configuration not stated) + C=CC(=O)N1CCN(c2nc(OCC3CCCN3C)nc3c2CCN(c2cccc4cccc(C)c24)C3)CC1CC#N ?
100

# viability, T/C lookup, item COc1cc(Nc2ncc3c(n2)-c2ccc(Cl)cc2C(c2c(F)cccc2OC)=NC3)ccc1C(=O)O + CC1OCC2(CCN(c3cnc(Sc4ccnc(N)c4Cl)c(N)n3)CC2)C1N
25.3

Given the compound Cn1ncnc1[C@H]1c2n[nH]c(=O)c3cc(F)cc(c23)N[C@@H]1c1ccc(F)cc1 + C=CC(=O)N1CCN(c2nc(=O)n(-c3c(C)ccnc3C(C)C)c3nc(-c4c(O)cccc4F)c(F)cc23)C(C)C1 , what is its reported viability, T/C?
92.2

// viability, T/C lookup, key: CC(C)NCC(C(=O)N1CCN(c2ncnc3c2C(C)CC3O)CC1)c1ccc(Cl)cc1 (configuration not stated) + CC1OCC2(CCN(c3cnc(Sc4ccnc(N)c4Cl)c(N)n3)CC2)C1N
101

Please give the measured viability, T/C for this compound: O=C(c1cc(Cc2n[nH]c(=O)c3ccccc23)ccc1F)N1CCN(C(=O)C2CC2)CC1 + C=CC(=O)N1CCN(c2nc(OCC3CCCN3C)nc3c2CCN(c2cccc4cccc(C)c24)C3)CC1CC#N
101

Returns the measured viability, T/C for the input compound. Input: CN(C)C/C=C/C(=O)Nc1cc2c(Nc3ccc(F)c(Cl)c3)ncnc2cc1O[C@H]1CCOC1 + C=CC(=O)N1CCN(c2nc(OCC3CCCN3C)nc3c2CCN(c2cccc4cccc(C)c24)C3)CC1CC#N
53.8

Recorded viability, T/C for CC(C)NCC(C(=O)N1CCN(c2ncnc3c2C(C)CC3O)CC1)c1ccc(Cl)cc1 (configuration not stated) + C=CC(=O)N1CCN(c2nc(=O)n(-c3c(C)ccnc3C(C)C)c3nc(-c4c(O)cccc4F)c(F)cc23)C(C)C1 , please?
95.9

viability, T/C for CC(=O)OC12COC1CC(O)C1(C)C(=O)C(O)C3=C(C)C(OC(=O)C(O)C(NC(=O)OC(C)(C)C)c4ccccc4)CC(O)(C(OC(=O)c4ccccc4)C21)C3(C)C (configuration not stated) + C=CC(=O)N1CCN(c2nc(OCC3CCCN3C)nc3c2CCN(c2cccc4cccc(C)c24)C3)CC1CC#N ?
31.7

// viability, T/C lookup, key: CC(C)NCC(C(=O)N1CCN(c2ncnc3c2C(C)CC3O)CC1)c1ccc(Cl)cc1 (configuration not stated) + C=CC(=O)N1CCN(c2nc(OCC3CCCN3C)nc3c2CCN(c2cccc4cccc(C)c24)C3)CC1CC#N
98.8

What value of viability, T/C has been recorded for this entry: CCN1CCN(Cc2ccc(Nc3ncc(F)c(-c4cc(F)c5nc(C)n(C(C)C)c5c4)n3)nc2)CC1 + CNCc1ccccc1-c1csc(C(C)Nc2nc(C)nc3cc(OC)c(OC)cc23)c1
78.7

Please report the recorded viability, T/C for CCNC(=O)CC1N=C(c2ccc(Cl)cc2)c2cc(OC)ccc2-n2c(C)nnc21 (configuration not stated) + C=CC(=O)N1CCN(c2nc(OCC3CCCN3C)nc3c2CCN(c2cccc4cccc(C)c24)C3)CC1CC#N .
110

Field request: viability, T/C | item: CC1COCCN1c1cc(-c2ccnn2C)c2ccnc(-c3ccn[nH]3)c2n1 (configuration not stated) + CNCc1ccccc1-c1csc(C(C)Nc2nc(C)nc3cc(OC)c(OC)cc23)c1
76.1
